These measurements were taken from PubChem BioAssay AID651813.

Target: DNA dC->dU-editing enzyme APOBEC-3G (Homo sapiens) (UniProt Q9HC16)
Sequence (Q9HC16 whole entry, looked up): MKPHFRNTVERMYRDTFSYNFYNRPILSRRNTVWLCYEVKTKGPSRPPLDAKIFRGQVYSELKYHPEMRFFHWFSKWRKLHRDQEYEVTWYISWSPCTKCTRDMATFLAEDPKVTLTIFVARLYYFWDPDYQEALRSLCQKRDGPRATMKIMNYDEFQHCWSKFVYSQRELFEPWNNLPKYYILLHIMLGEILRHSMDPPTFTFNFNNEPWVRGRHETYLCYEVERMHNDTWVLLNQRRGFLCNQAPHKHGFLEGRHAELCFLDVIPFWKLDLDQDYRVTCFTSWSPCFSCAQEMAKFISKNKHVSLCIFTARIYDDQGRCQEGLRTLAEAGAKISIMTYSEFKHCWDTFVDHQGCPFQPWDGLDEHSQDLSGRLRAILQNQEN
Experiment: qHTS for inhibitors of Vif-A3G interactions: Cherry picks counterscreen;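 further: hits raise yellow fluorescence by blocking Vif-driven A3G-eYFP degradation; nearly all actives have a fitted effect of over 70% in size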;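 on max response: max response given as percent of control signal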
Conditions: HeLa A3G-eYFP + Vif, eYFP fluorescence, 24 h
Out of some 2,100 compounds screened, about 1,100 (52%) were called active. Another 27% or so got no clear call; they are omitted. So high a share suggests a set chosen from earlier hits. Some of the results follow.
The entries below are paired with their reported max response.
Answer with a number only, understood to be in %.

Consider the reported max response for these molecules:
Query max response for Cc1cccc(CN2CCCC(C(=O)c3cccc(OC(C)C)c3)C2)n1 (centres undefined)
2.93

Supply reported max response belonging to this molecule: ClCCN(CCCl)c1ccc(C=Cc2ccncn2)cc1
-8.89

More entries:
Look up and state reported max response for Cc1ccccc1-n1c(O)c(/C=C/C=Nc2ccccc2)c(=O)[nH]c1=O
55.1

Look up and state reported max response for COc1ccc2nc(NC(=O)c3nc(S(=O)(=O)Cc4cccc(C)c4)ncc3Cl)sc2c1
58.8

* * *

Recorded Potency for the following molecules
Molecular target: DNA dC->dU-editing enzyme APOBEC-3G (Homo sapiens) (UniProt Q9HC16)
Assay: qHTS for inhibitors of Vif-A3G interactions: Cherry picks counterscreen;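 further: hits raise yellow fluorescence by blocking Vif-driven A3G-eYFP degradation; nearly all actives have a fitted effect of over 70% in size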; further: potency means the concentration at half of the fitted maximal effect
Details: HeLa A3G-eYFP + Vif, eYFP fluorescence, 24 h
The whole screen tested about 2,100 compounds, of which about 1,100 (52%) were called active. Not shown: some 27% with an inconclusive outcome. The set was probably picked from earlier hits. The list shows a part of the results.

Sample answers from the record:
Consider the molecule CN1C(=O)C(=Cc2ccc(N3CCOCC3)o2)C(=O)N(C)C1=O . State its measured Potency.
23.1 µM (active)

Indicate its recorded Potency; the molecule in question is CCN(CC)c1ccc(N=Cc2c(O)n(Cc3ccccc3)c(=O)[nH]c2=O)cc1
13 µM (active)

Consider the molecule CC(=O)OC1C2(CC3N4C(=O)C5(CO)SSC4(CC31O)C(=O)N5C)OC(C)C(C)(C)C2=O (centres undefined) and give its recorded Potency.
12.5 µM (active)

Here's the next entry for you.
Provide Potency value for the following molecule: C=CCn1c(O)c(C(C)=Nc2ccc(N(CC)CC)cc2)c(=O)[nH]c1=O
9.94 µM (active)

* * *

Target: DNA dC->dU-editing enzyme APOBEC-3G (Homo sapiens) (UniProt Q9HC16)
Experiment: qHTS for inhibitors of Vif-A3G interactions: Cherry picks counterscreen;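 further: hits raise yellow fluorescence by blocking Vif-driven A3G-eYFP degradation; nearly all actives have a fitted effect of over 70% in size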; further: potency means the concentration at half of the fitted maximal effect
Conditions: HeLa A3G-eYFP + Vif (tagged APOBEC3G with the HIV-1 protein that degrades it), eYFP fluorescence, 24 h
Screen size: about 2,100 compounds; about 1,100 (52%) were called active. Not shown: some 27% with an inconclusive outcome. So high a share suggests a set chosen from earlier hits. The list shows a part of the results.
QUANTITY_NAME: Potency

In the examples that follow, each entry is paired with its recorded Potency.
Provide measured Potency value, entry: CC(C)c1ccc(N2C(=O)NC(=O)/C(=C\C=C\c3ccco3)C2=O)cc1
14 µM (active)

Look up Potency of CCN(CC)c1ccc(C=C2C(=O)N(C)C(=S)N(C)C2=O)o1 and report it.
6.27 µM (active)

Find the measured Potency of CCN1C(=O)/C(=C/c2ccc(N(CC)CC)cc2OC)C(=O)NC1=S and report it.
18.4 µM (active)

Others:
Retrieve Potency measured for COc1cc(C2C(C#N)=C(N)Oc3cc(O)ccc32)cc(OC)c1OC (centres undefined) and print it.
1.77 µM (active)
